- Test system: HeLa, HCC1937, MCF7, A549 and MRC-5
- METHOD_SUMMARY: cells
- Type: cell-based, Human
- CONDITIONS_USED: Homo sapiens; range over HeLa, HCC1937, MCF7, A549, MRC-5; read-out: IC50 across the five cell lines
Parameter: IC50. Scope: all listed entries.

Ask: Name the recorded IC50 of the item CC(=O)Nc1ccc(S(=O)(=O)OC2CCC3(C)C4=CCC5(C)C(C6(C)CCC(C(C)(C)O)O6)C(O)CC5(C)C4C=CC3C2(C)C)cc1 (stereo not shown) [AG-06] in your answer.
Result: 5.7 to 19.1 µM

Ask: Name the recorded IC50 of the item Cc1ccc(S(=O)(=O)OC2CCC34CC35CCC3(C)C(C6(C)CCC(C(C)(C)O)O6)C(O)CC3(C)C5CC(=O)C4C2(C)C)cc1 (stereo not shown) [CG-05] in your answer.
Result: 1.85 to 6.1 µM

Ask: Name the recorded IC50 of the item Cc1ccc(S(=O)(=O)OC2CCC34CC35CCC3(C)C(C6(C)CCC(C(C)(C)O)O6)C(O)CC3(C)C5C=CC4C2(C)C)cc1 (stereo not shown) [CG-03] in your answer.
Result: 3.65 to 12.9 µM

// switching to the query compound
Ask: Name the recorded IC50 of the item Cc1ccc(S(=O)(=O)OC2CCC3(C)C4=CCC5(C)C(C6(C)CCC(C(C)(C)O)O6)C(O)CC5(C)C4CC(=O)C3C2(C)C)cc1 (stereo not shown) [AG-05] in your answer.
Result: 1.55 to 5.9 µM

* * *

- Test system: A549
- METHOD_SUMMARY: Cytotoxicity analysis (WST-1)
- Assay type: cell-based
- CONDITIONS_USED: Homo sapiens, A549, 48 h
PROPERTY_NAME: IC50 (µM)
Supply the numeric figure in µM, leaving out any unit text.

Ask: Name the recorded IC50 of the item Cc1ccc(S(=O)(=O)OC2CCC34CC35CCC3(C)C(C6(C)CCC(C(C)(C)O)O6)C(O)CC3(C)C5CC(=O)C4C2(C)C)cc1 (centres unmarked) in your answer.
Result: 1.85

Ask: Name the recorded IC50 of the item Cc1ccc(S(=O)(=O)OC2CCC34CC35CCC3(C)C(C6(C)CCC(C(C)(C)O)O6)C(O)CC3(C)C5C=CC4C2(C)C)cc1 (centres unmarked) in your answer.
Result: 3.65

Ask: Name the recorded IC50 of the item CC(C)(O)C1CCC(C)(C2C(O)CC3(C)C4CC(O)C5C(C)(C)C=CCC5(C)C4=CCC23C)O1 (centres unmarked) in your answer.
Result: 30.5

Ask: Name the recorded IC50 of the item CC(=O)Nc1ccc(S(=O)(=O)OC2CCC3(C)C4=CCC5(C)C(C6(C)CCC(C(C)(C)O)O6)C(O)CC5(C)C4C=CC3C2(C)C)cc1 (centres unmarked) in your answer.
Result: 5.7

Ask: Name the recorded IC50 of the item CC(C)(O)C1CCC(C)(C2C(O)CC3(C)C4C=CC5C(C)(CCC(OS(C)(=O)=O)C5(C)C)C4=CCC23C)O1 (centres unmarked) in your answer.
Result: 27.5

// switching to the query compound
Ask: Name the recorded IC50 of the item CN(C)c1cccc2c(S(=O)(=O)OC3CCC4(C)C5=CCC6(C)C(C7(C)CCC(C(C)(C)O)O7)C(O)CC6(C)C5C=CC4C3(C)C)cccc12 (centres unmarked) in your answer.
Result: 38.2

* * *

- System: A549
- METHOD_SUMMARY: Cytotoxicity analysis (WST-1)
- Format: cell-based
- CONDITIONS_USED: Homo sapiens, A549, 48 h
PROPERTY_NAME: IC50

Example compounds with recorded IC50:
Ask: Name the recorded IC50 of the item Cc1ccc(S(=O)(=O)OC2CC3C4(C)CC(O)CC4(C)CCC34CC43CC=CC(C)(C)C23)cc1 (stereo not drawn) [SCG-03] in your answer.
Result: > 50 µM

Ask: Name the recorded IC50 of the item CC(C)(O)C1CCC(C)(C2C(O)CC3(C)C4C=CC5C(C)(CCC(O)C5(C)C)C4=CCC23C)O1 (stereo not drawn) [AG-03] in your answer.
Result: 25.5 µM

Further cases:
Ask: Name the recorded IC50 of the item Cc1ccc(S(=O)(=O)OC2CCC3(C)C4=CCC5(C)C(C6(C)CCC(C(C)(C)O)O6)C(O)CC5(C)C4CC(=O)C3C2(C)C)cc1 (stereo not drawn) [AG-05] in your answer.
Result: 2.02 µM

Ask: Name the recorded IC50 of the item CC(C)(O)C1CCC(C)(C2C(O)CC3(C)C4CC(O)C5C(C)(C)C(O)CCC56CC46CCC23C)O1 (stereo not drawn) [CG, cycloastragenol, reference compound] in your answer.
Result: > 50 µM

Ask: Name the recorded IC50 of the item CC(C)(O)C1CCC(C)(C2C(O)CC3(C)C4C=CC5C(C)(C)C(OS(C)(=O)=O)CCC56CC46CCC23C)O1 (stereo not drawn) [CG-04] in your answer.
Result: > 50 µM

Ask: Name the recorded IC50 of the item CC(=O)Nc1ccc(S(=O)(=O)OC2CCC34CC35CCC3(C)C(C6(C)CCC(C(C)(C)O)O6)C(O)CC3(C)C5C=CC4C2(C)C)cc1 (stereo not drawn) [CG-06] in your answer.
Result: > 50 µM

Ask: Name the recorded IC50 of the item CC1(C)C(O)CCC23CC24CCC2(C)CC(O)CC2(C)C4C=CC13 (stereo not drawn) [SCG-02] in your answer.
Result: > 50 µM

Ask: Name the recorded IC50 of the item CC(C)(O)C1CCC(C)(C2C(O)CC3(C)C4C=CC5C(C)(C)C(O)CCC56CC46CCC23C)O1 (stereo not drawn) [CG-02] in your answer.
Result: 21.1 µM

Ask: Name the recorded IC50 of the item Cc1ccc(S(=O)(=O)OC2CC3(C)CCC45CC46CCC(O)C(C)(C)C6C(O)CC5C3(C)C2)cc1 (stereo not drawn) [SCG-01] in your answer.
Result: > 50 µM

* * *

- Tested on: A549
- METHOD_SUMMARY: Cytotoxicity analysis (WST-1)
- Format: cell-based
- CONDITIONS_USED: Homo sapiens, A549, 48 h
Parameter: IC50. Scope: all listed entries.

Ask: State IC50 on A549. Entry: CC1(C)C(O)CCC23CC24CCC2(C)CC(O)CC2(C)C4CC(O)C13 (centres unmarked) [SCG, 20(27)-octanor-cycloastragenol, reference compound]
Result: > 50 µM

Further cases:
Ask: State IC50 on A549. Entry: CC1(C)C(OS(C)(=O)=O)CCC23CC24CCC2(C)CC(OS(C)(=O)=O)CC2(C)C4C=CC13 (centres unmarked) [SCG-06]
Result: > 50 µM

Ask: State IC50 on A549. Entry: Cc1ccc(S(=O)(=O)OC2CC3(C)CCC45CC46CCC(OS(=O)(=O)c4ccc(C)cc4)C(C)(C)C6C=CC5C3(C)C2)cc1 (centres unmarked) [SCG-04]
Result: > 50 µM

Ask: State IC50 on A549. Entry: CC1(C)C(O)CCC23CC24CCC2(C)CC(OS(C)(=O)=O)CC2(C)C4CC(O)C13 (centres unmarked) [SCG-07]
Result: > 50 µM

Ask: State IC50 on A549. Entry: CC(C)(O)C1CCC(C)(C2C(O)CC3(C)C4CC(O)C5C(C)(CCC(O)C5(C)C)C4=CCC23C)O1 (centres unmarked) [AG, astragenol, reference compound]
Result: > 30 µM

Ask: State IC50 on A549. Entry: CC(C)(O)C1CCC(C)(C2C(O)CC3(C)C4CC(=O)C5C(C)(C)C(O)CCC56CC46CCC23C)O1 (centres unmarked) [CG-01]
Result: > 30 µM

Ask: State IC50 on A549. Entry: Cc1ccc(S(=O)(=O)OC2CC3(C)CCC45CC46CCC(O)C(C)(C)C6C=CC5C3(C)C2)cc1 (centres unmarked) [SCG-05]
Result: > 50 µM

Ask: State IC50 on A549. Entry: CC(C)(O)C1CCC(C)(C2C(O)CC3(C)C4CC(=O)C5C(C)(CCC(O)C5(C)C)C4=CCC23C)O1 (centres unmarked) [AG-01]
Result: > 30 µM
